Reference source: patent US6825172B2

Test system: S. pneumoniae ATCC49619
MEASUREMENT_PROTOCOL: MIC, microdilution broth method (NCCLS)
Assay type: cell-based
CONDITION_NOTES: Streptococcus pneumoniae, Table 1, 6-Carbamoyl-3-Acyl Macrolide Derivatives, read-out: MIC Values, D: S. pneumoniae ATCC49619
What MIC was measured for each of the following?
// note: answer is a bare numeric in µg/mL

query: # input compound: CC[C@H]1OC(=O)[C@H](C)[C@@H](OC(=O)C(C)C)[C@H](C)[C@@H](O[C@@H]2O[C@H](C)C[C@H](N(C)C)[C@H]2O)[C@](C)(OC(=O)NC/C=C/c2ccc(-c3ncccn3)cc2)C[C@@H](C)C(=O)[C@H](C)[C@H]2NC(=O)O[C@@]21C [Compound 1] ; wanted: its MIC
result: 0.06

query: # input compound: CC[C@H]1OC(=O)[C@H](C)[C@@H](OC(=O)C(C)C)[C@H](C)[C@@H](O[C@@H]2O[C@H](C)C[C@H](N(C)C)[C@H]2O)[C@](C)(OC(=O)NC/C=C/c2ccc(-c3ccn(C)n3)cc2)C[C@@H](C)C(=O)[C@H](C)[C@H]2NC(=O)O[C@@]21C [Compound 49] ; wanted: its MIC
result: 0.06
